Ref: patent US20240018502A1

- Test System: plasma purified human complement protein C3 (human) (UniProt P01024)
- Sequence (P01024 23-667, chain 1 of 2): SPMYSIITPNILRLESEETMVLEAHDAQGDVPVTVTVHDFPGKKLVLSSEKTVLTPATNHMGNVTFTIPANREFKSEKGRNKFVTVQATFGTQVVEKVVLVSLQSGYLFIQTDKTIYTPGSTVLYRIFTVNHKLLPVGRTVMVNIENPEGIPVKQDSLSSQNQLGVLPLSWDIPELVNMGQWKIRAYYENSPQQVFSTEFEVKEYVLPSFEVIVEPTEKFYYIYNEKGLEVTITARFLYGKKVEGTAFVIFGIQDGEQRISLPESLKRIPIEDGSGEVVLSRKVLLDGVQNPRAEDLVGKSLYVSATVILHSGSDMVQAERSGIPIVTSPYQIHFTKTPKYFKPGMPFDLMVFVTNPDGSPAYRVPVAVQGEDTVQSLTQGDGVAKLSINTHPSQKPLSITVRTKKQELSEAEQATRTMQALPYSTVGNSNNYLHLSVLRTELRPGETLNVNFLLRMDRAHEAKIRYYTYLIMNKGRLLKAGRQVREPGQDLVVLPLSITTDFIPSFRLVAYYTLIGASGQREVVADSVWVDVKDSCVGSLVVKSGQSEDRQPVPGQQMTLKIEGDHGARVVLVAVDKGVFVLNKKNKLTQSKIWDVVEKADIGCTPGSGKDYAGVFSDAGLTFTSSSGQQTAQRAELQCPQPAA
- Sequence (P01024 672-1663, chain 2 of 2): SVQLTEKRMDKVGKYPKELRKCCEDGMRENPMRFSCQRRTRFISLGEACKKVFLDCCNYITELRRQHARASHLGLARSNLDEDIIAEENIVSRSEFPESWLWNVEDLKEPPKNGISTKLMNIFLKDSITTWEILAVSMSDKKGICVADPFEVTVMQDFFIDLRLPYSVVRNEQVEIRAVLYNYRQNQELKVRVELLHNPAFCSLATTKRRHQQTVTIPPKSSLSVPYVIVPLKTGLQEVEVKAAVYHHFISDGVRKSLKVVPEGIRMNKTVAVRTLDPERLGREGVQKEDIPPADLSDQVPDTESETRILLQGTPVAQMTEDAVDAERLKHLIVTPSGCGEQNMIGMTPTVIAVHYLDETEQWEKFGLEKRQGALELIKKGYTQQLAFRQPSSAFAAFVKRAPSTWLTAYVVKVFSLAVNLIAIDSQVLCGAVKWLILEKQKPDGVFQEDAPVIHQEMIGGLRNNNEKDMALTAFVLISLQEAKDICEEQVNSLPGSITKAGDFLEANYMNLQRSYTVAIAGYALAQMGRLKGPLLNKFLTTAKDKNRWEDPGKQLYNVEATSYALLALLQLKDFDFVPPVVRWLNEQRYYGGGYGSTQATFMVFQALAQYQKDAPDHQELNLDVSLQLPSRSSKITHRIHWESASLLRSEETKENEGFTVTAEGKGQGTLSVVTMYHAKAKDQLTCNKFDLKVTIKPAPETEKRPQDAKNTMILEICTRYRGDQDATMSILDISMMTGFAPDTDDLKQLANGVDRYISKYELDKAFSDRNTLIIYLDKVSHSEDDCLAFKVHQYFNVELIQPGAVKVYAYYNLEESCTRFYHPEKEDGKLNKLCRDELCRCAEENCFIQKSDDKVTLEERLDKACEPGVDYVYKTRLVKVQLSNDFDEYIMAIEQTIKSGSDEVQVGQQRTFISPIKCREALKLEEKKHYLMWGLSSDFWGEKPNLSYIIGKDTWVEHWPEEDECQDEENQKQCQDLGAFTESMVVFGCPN
- Method Notes: cell-based or functional assay
Quantity Measured: EC50 of hC3 cleavage
Param answer (str): number followed by unit.

Some solved cases for reference:
MTSP-1 Q38H/I41S/D60bT/F60eS/Y60gW/D96K/F97G/ins97aV/T98P/F99L/C122S/G151H/Q192D (enzyme) VVGGTDADEGEWPWQVSLHALGHGHSCGASLISPNWLVSAAHCYIDTRGSRWSDPTQWTAFLGLHDQSQRSAPGVQERRLKRIISHPFFNKGVPLDYDIALLELEKPAEYSSMVRPISLPDASHVFPAGKAIWVTGWGHTQYGGTHALILQKGEIRVINQTTCENLLPQQITPRMMCVGFLSGGVDSCDGDSGGPLSSVEADGRIFQAGVVSWGDGCAQRNKPGVYTRLPLFRDWIKENTGV
19.9 nM
MTSP-1 Q38H/I41S/D60bG/ins97aV/F97D/T98P/F99L/M117T/C122S/N164D/Q192G/D217E (enzyme) VVGGTDADEGEWPWQVSLHALGHGHSCGASLISPNWLVSAAHCYIDGRGFRYSDPTQWTAFLGLHDQSQRSAPGVQERRLKRIISHPFFNDDVPLDYDIALLELEKPAEYSSTVRPISLPDASHVFPAGKAIWVTGWGHTQYGGTGALILQKGEIRVIDQTTCENLLPQQITPRMMCVGFLSGGVDSCGGDSGGPLSSVEADGRIFQAGVVSWGEGCAQRNKPGVYTRLPLFRDWIKENTGV
10.3 nM
MTSP-1 I41R/ins97aE/F97T/T98G/F99L/C122S/Q175L/Q192E (enzyme) VVGGTDADEGEWPWQVSLHALGQGHRCGASLISPNWLVSAAHCYIDDRGFRYSDPTQWTAFLGLHDQSQRSAPGVQERRLKRIISHPFFNDTEGLDYDIALLELEKPAEYSSMVRPISLPDASHVFPAGKAIWVTGWGHTQYGGTGALILQKGEIRVINQTTCENLLPQLITPRMMCVGFLSGGVDSCEGDSGGPLSSVEADGRIFQAGVVSWGDGCAQRNKPGVYTRLPLFRDWIKENTGV
523 nM
MTSP-1 Q38H/I41A/D60bT/F60eK/Y60gW/ins97aE/F97T/T98G/F99L/C122S/Q175L/Q192D (enzyme) VVGGTDADEGEWPWQVSLHALGHGHACGASLISPNWLVSAAHCYIDTRGKRWSDPTQWTAFLGLHDQSQRSAPGVQERRLKRIISHPFFNDTEGLDYDIALLELEKPAEYSSMVRPISLPDASHVFPAGKAIWVTGWGHTQYGGTGALILQKGEIRVINQTTCENLLPQLITPRMMCVGFLSGGVDSCDGDSGGPLSSVEADGRIFQAGVVSWGDGCAQRNKPGVYTRLPLFRDWIKENTGV
3.82 nM

Consider now this further binder.
Data request: Fill blank: measured EC50 of hC3 cleavage of the binder MTSP-1 I41D/ins97aE/F97T/T98G/F99L/C122S/G151N/Q175L/Q192E/Q209L (enzyme) VVGGTDADEGEWPWQVSLHALGQGHDCGASLISPNWLVSAAHCYIDDRGFRYSDPTQWTAFLGLHDQSQRSAPGVQERRLKRIISHPFFNDTEGLDYDIALLELEKPAEYSSMVRPISLPDASHVFPAGKAIWVTGWGHTQYGGTNALILQKGEIRVINQTTCENLLPQLITPRMMCVGFLSGGVDSCEGDSGGPLSSVEADGRIFLAGVVSWGDGCAQRNKPGVYTRLPLFRDWIKENTGV is ____.
Data returned: 103 nM
